- assayed-target: MSI1 full-length (mouse, UniProt Q61474 1-362)
- Sequence (Q61474 whole entry): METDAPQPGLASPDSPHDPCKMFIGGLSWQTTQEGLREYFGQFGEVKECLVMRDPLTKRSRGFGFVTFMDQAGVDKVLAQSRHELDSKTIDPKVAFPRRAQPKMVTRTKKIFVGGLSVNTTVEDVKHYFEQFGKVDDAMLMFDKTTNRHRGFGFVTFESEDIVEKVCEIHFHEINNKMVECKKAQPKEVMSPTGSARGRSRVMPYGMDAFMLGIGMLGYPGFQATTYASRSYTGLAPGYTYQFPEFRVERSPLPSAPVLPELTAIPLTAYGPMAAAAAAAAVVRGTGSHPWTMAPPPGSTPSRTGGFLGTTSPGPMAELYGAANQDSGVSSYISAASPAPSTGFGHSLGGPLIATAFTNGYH
- experiment-description: nsRBNS (natural sequence RNA bind-n-seq); RBNS binding buffer (assumed for nsRBNS): 25 mM Tris pH 7.5, 150 mM KCl, 3 mM MgCl2, 0.01% Triton X-100, 500 ug/ml BSA, 20 U/ml SUPERase-In, 4 C; UNK is unkempt and MSI1 is Musashi-1; names of the RNAs are library labels; protein concentration not given here; high values mean tight binding
The full ranking holds about 5,800 sequences; the median of “enrichment r” is about 0.54, and the highest 2% start at about 16. The sample holds the highest values, similar sequences and a random draw of the others, so the mix is not that of the screen.
So basically: binding signal at 3 enrichment R or higher? That is Satisfied. Lower than 3 enrichment R? That is Not satisfied.

Completed entries (count: 6):
binder	cat
chr16:46660370:46660459:-|3pUTR|ENSG00000069329|msi1_unk|total|mutant (ssRNA) RNA: GGGAGUUCUACAGUCCGACGAUCAAAAGGAAACCGCUCACCAUACUCCUUUCCAUGUACAUCCAGUGAGGGUUUUAUUACGCCCGGUUUCCCUUCCACCGAUUGUGCCUUUCAGAAAUGCUGAGGCCGGUUUCCCAUUUCUUACAACAGAGGAUUGAGCAUCA	Not satisfied
chr10:113908677:113908778:+|3pUTR|ENSG00000196865|unk|total|mutant (ssRNA) RNA: GGGAGUUCUACAGUCCGACGAUCAGCUAUGCUCCUUACUUACUUCUUUUAUUAUAAACAAAUUCCUUUGCUUUGGCUGAUACCCGCUGAGUCAUUGAUCAUCAUUGGUACCAUGAUAUUGUAAUCUAUGCUGCUAUUUGGCACCAACAGAGGAUUGAGCAUCA	Satisfied
chr8:94436494:94436868:-|CDS|ENSG00000265817|control|control|control (ssRNA) RNA: GGGAGUUCUACAGUCCGACGAUCAAUAGUAGAAAAGAAUAGAUGUUGGGAUAUCAUAGCAGUUAACUAUAAUGCAAUUGGAGUAGACCGCCCUCCUCGAACAGCACAGGGCCUACGCACCCUUUAUAAAAGGCUCAAAGAAUACAACAGAGGAUUGAGCAUCA	Satisfied
chr1:229632307:229632408:+|CDS|ENSG00000135763|unk|total|mutant (ssRNA) RNA: GGGAGUUCUACAGUCCGACGAUCAUUUUAUAAGAAAAAGCUUGAACUGAAGGAAGAUAUUGUUGAAAGGCUUUGGAUCUAUACCGAUAACAUUUUACACCGCAGAAAAUUGCAGAAUCUCCUCAAGAAUGGAAAGACCAUUAACAACAGAGGAUUGAGCAUCA	Not satisfied
chr6:75256125:75256201:-|CDS_3pUTR|ENSG00000112697|msi1_unk|FALSE|overlapping (ssRNA) RNA: GGGAGUUCUACAGUCCGACGAUCUUUGGGGAUUGCUUACAUCGCUGUUGGAUCCAUCUCCUUCCUUCUGGGAGUUGUACUGCUAGUAAUUAAUCAUAAAUAUAGAAACAGUAGUAAUACAGCUGACAUUACCAUUUAAUUUUACAACAGAGGAUUGAGCAUCA	Satisfied
chr11:101473508:101473773:-|CDS|ENSG00000137672|control|control|control (ssRNA) RNA: GGGAGUUCUACAGUCCGACGAUCUCCUCAAAUAAUAUCUGAAGGUCUUUAUGCAAUUGCUGUAGUUUUAAGUUUCUCUAGGAUAGCUUAUAUUUUACCAGCAAAUGAAAGCUUUGGACCUCUGCAGAUAUCACUUGGAAGAACCAACAGAGGAUUGAGCAUCA	Not satisfied

-- ask // inclusive: binding signal at least 3 enrichment R? input: chr10:74136666:74136778:-|CDS|ENSG00000185009|unk|FALSE|unique (ssRNA) RNA: GGGAGUUCUACAGUCCGACGAUCUUCAGAGGCUGCAAUUAAGGAUAAUGUGGUCAUAGUAUAUGAACUCUUAGAAGAAAUGUUAGACAAUGGAUUUCCACUGGCUACCGAAUCUAACAUUUUGAAAGAAUUGAUUAAACCACCCAACAGAGGAUUGAGCAUCA
-- reply Not satisfied
